The measurements presented in this section are drawn from patent US20240158475A1.

TESTED TARGET: DN-III quality control recombinant protein (produced by Fapon Biotech InC.) (dengue virus)
PROTOCOL TEXT: BLI, AMC sensor, antibody captured
kon reference
Give the number; M⁻¹ s⁻¹ is assumed, so skip it.

anti-dengue virus NS1 3D5 monoclonal antibody (recombinant, expressed in CHO cells) (antibody, mouse IgG1, kappa, V domains shown) VH: EVQLQQSGTELVRPGALVKLSCKASGFNIKDYYVHWVKQRPRQGLEWIGWIDPNNGKTIYDPKFQDKASITSDTSTNTAYLQLRSLTSEDTAVYYCVTAYVRFVYWGQGTLVTVSA VL: QIVLTQSPAIMSAFPGERVTMTCSASTSVKYMYWHQQKPGSSPRLLIYETSNIASGVPVRFSGSGSGTSYSLTISRDEAMDAATYYCQQWSSYPRTFGGGTKLEIKR | 44300

Read the next record carefully.
IN: Need kon, item Mutation 1-27 (antibody, V domains shown) VH: EVQLQQSGTELVRPGALVKLSCKASGFNIKDYYVHWVKQRPRQGLEWIGWIDPENGKTIYDPKFQDKASITSDTSTNTAYLQLRSLTSEDTAVYYCVSAYVRFVYWGQGTLVTVSA VL: QIVLTQSPAIMSAFPGERVTMTCSASSSVRYMYWHQQKPGSSPRLLIYDTSNLASGVPVRFSGSGSGTSYSLTISRDEAMDAATYYCQQWSSTPRTFGGGTKLEIKR
OUT: 303000
